- tested-on: Muscarinic acetylcholine receptor M1 (Homo sapiens) (UniProt P11229)
- Sequence (P11229 whole entry, looked up): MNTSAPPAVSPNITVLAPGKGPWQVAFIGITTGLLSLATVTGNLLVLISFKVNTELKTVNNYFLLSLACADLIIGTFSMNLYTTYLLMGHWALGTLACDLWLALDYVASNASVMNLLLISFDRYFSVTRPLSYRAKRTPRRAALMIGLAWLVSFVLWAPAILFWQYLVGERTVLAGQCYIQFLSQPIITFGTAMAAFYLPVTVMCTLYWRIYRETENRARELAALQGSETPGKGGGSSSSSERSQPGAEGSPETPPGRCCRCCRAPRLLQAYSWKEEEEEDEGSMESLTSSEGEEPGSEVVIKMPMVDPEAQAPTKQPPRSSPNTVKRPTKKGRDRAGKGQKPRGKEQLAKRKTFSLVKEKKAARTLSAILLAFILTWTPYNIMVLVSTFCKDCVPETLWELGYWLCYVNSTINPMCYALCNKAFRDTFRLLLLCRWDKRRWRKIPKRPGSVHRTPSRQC
- test-summary: CHRM1 blockers of acetylcholine calcium response – CHO-K1 cells, Fluo-8 calcium fluorescence, 1536-well, primary screen (AID 588852);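 note: peak over basal fluorescence ratio during 140 s after agonist addition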
- test-context: CHO-K1 hM1, Fluo-8 calcium fluorescence, ACh EC80 antagonist; at 3 µM
About 4,600 (1.3%) of roughly 360,000 compounds were called active.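 Rule for the calls: active = percent inhibition above its own plate's cutoff, namely the mean of that plate's compound wells plus 3 SD; inactive = the rest.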 The full list was thinned out, with actives kept by preference.
Possible outcomes: active, inactive

[[record]]
molecule = "Cc1ccc(S(=O)(=O)N2CCOCC2)cc1C(=O)OC1CCCCC1=O (stereo unspecified)"
tested_on = "Muscarinic acetylcholine receptor M1 (Homo sapiens) (UniProt P11229)"
assigned_category = "inactive"

[[record]]
molecule = "CCc1ccc(N2CC(C(=O)NC3=NCCS3)CC2=O)cc1 (stereo unspecified)"
tested_on = "Muscarinic acetylcholine receptor M1 (Homo sapiens) (UniProt P11229)"
assigned_category = "inactive"

[[record]]
molecule = "CCNS(=O)(=O)c1ccc(CCC(=O)N2CCN(c3cc(Cl)ccc3C)CC2)cc1"
tested_on = "Muscarinic acetylcholine receptor M1 (Homo sapiens) (UniProt P11229)"
assigned_category = "inactive"

[[record]]
molecule = "COc1ccc(OCCNS(=O)(=O)Cc2ccccc2)cc1"
tested_on = "Muscarinic acetylcholine receptor M1 (Homo sapiens) (UniProt P11229)"
assigned_category = "inactive"

[[record]]
molecule = "Cc1ccc(C(=O)NCC(c2cccs2)N(C)C)cc1S(=O)(=O)N1CCOCC1 (stereo unspecified)"
tested_on = "Muscarinic acetylcholine receptor M1 (Homo sapiens) (UniProt P11229)"
assigned_category = "active"

[[record]]
molecule = "COc1ccccc1C(CNC(=O)c1ccc(C)c(S(=O)(=O)N2CCCCC2)c1)N(C)C (stereo unspecified)"
tested_on = "Muscarinic acetylcholine receptor M1 (Homo sapiens) (UniProt P11229)"
assigned_category = "active"

[[record]]
molecule = "COc1ccc(S(=O)(=O)NCCOc2ccccc2)cc1F"
tested_on = "Muscarinic acetylcholine receptor M1 (Homo sapiens) (UniProt P11229)"
assigned_category = "inactive"

[[record]]
molecule = "CCOC(=O)C1CCN(Cc2ccc(-c3ccccc3)cc2)CC1"
tested_on = "Muscarinic acetylcholine receptor M1 (Homo sapiens) (UniProt P11229)"
assigned_category = "inactive"

[[record]]
molecule = "CSc1nc2sc3c(c2c(=O)[nH]1)CCc1ccccc1-3"
tested_on = "Muscarinic acetylcholine receptor M1 (Homo sapiens) (UniProt P11229)"
assigned_category = "inactive"

[[record]]
molecule = "COc1ccccc1C(=O)Nc1ccc(C)c(S(=O)(=O)N2CCCCC2)c1"
tested_on = "Muscarinic acetylcholine receptor M1 (Homo sapiens) (UniProt P11229)"
assigned_category = "inactive"

[[record]]
molecule = "CCCCN1C(=O)/C(=C2/C=CC=CN2C)SC1=S"
tested_on = "Muscarinic acetylcholine receptor M1 (Homo sapiens) (UniProt P11229)"
assigned_category = "active"

[[record]]
molecule = "CC(C)C[C@H]1CN([C@@H](Cc2ccccc2)CN2CCC[C@@H]2CN2C(=O)C(=O)NC[C@@H]2Cc2ccc(O)cc2)C(=O)C(=O)N1CCc1ccccc1"
tested_on = "Muscarinic acetylcholine receptor M1 (Homo sapiens) (UniProt P11229)"
assigned_category = "inactive"

[[record]]
molecule = "Cc1sc2ccccc2c1CNC[C@H]1O[C@@H](n2ccc(=O)[nH]c2=O)[C@H](O)[C@@H]1O"
tested_on = "Muscarinic acetylcholine receptor M1 (Homo sapiens) (UniProt P11229)"
assigned_category = "inactive"

[[record]]
molecule = "O=C(c1ccc(N2CCOCC2)c([N+](=O)[O-])c1)N1CCN(c2ccccc2F)CC1"
tested_on = "Muscarinic acetylcholine receptor M1 (Homo sapiens) (UniProt P11229)"
assigned_category = "inactive"

[[record]]
molecule = "CCCNC(=O)C1(C)CCN(Cc2csc(-c3ccc(Cl)cc3)n2)C1 (stereo unspecified)"
tested_on = "Muscarinic acetylcholine receptor M1 (Homo sapiens) (UniProt P11229)"
assigned_category = "inactive"

[[record]]
molecule = "COc1ccc(CNC(=O)COC(=O)c2ccc(C)c(S(=O)(=O)N3CCOCC3)c2)cc1OC"
tested_on = "Muscarinic acetylcholine receptor M1 (Homo sapiens) (UniProt P11229)"
assigned_category = "inactive"

[[record]]
molecule = "CCOC(=O)C1CCN(Cc2nnc(-c3cccc(Br)c3)o2)CC1"
tested_on = "Muscarinic acetylcholine receptor M1 (Homo sapiens) (UniProt P11229)"
assigned_category = "active"

[[record]]
molecule = "CN1C=CC=C/C1=C1\\SC(=S)N(Cc2ccccc2)C1=O"
tested_on = "Muscarinic acetylcholine receptor M1 (Homo sapiens) (UniProt P11229)"
assigned_category = "inactive"

[[record]]
molecule = "COc1ccc(S(=O)(=O)NCCCCOc2ccc(Cl)cc2)cc1"
tested_on = "Muscarinic acetylcholine receptor M1 (Homo sapiens) (UniProt P11229)"
assigned_category = "active"

[[record]]
molecule = "O=C(c1ccc(N2CCCC2=O)cc1)N1CCN(c2ccc(C(F)(F)F)cc2[N+](=O)[O-])CC1"
tested_on = "Muscarinic acetylcholine receptor M1 (Homo sapiens) (UniProt P11229)"
assigned_category = "active"

[[record]]
molecule = "CC/C(=N\\NC(=S)NC(C)C)c1ccc(OC(F)F)cc1"
tested_on = "Muscarinic acetylcholine receptor M1 (Homo sapiens) (UniProt P11229)"
assigned_category = "inactive"

